assay_target: Oxytocin receptor (Homo sapiens)
Sequence (whole entry): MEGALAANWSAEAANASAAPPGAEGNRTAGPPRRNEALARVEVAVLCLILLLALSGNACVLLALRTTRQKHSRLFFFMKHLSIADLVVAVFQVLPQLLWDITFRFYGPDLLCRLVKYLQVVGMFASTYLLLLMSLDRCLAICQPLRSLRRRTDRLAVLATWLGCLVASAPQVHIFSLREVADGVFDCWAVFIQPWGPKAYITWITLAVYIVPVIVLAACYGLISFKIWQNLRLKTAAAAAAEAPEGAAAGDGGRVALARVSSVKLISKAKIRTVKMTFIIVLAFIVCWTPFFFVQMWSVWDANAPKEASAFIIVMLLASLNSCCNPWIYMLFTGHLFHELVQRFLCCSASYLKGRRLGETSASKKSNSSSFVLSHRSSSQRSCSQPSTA
protocol_notes: Activity at human oxytocin receptor expressed in CHO cells assessed as inhibition of agonist-induced inositol phosphate accumulation at 10 uM
Type: functional, cell-based
Calls of active or inactive are those of the source. The calls are words filed in the database; no cut-off is given here.
readout_name: Activity

Worked cases, Activity given:
• CC(=O)NCc1ccc(C(=O)N2Cc3cnn(C)c3Nc3ccccc32)cc1C = inactive
• Cc1cc(C(=O)N2Cc3cnn(C)c3Nc3ccccc32)ccc1CNC(=O)N1CCCC1 = inactive
• Cc1cc(C(=O)N2Cc3cnn(C)c3Nc3ccccc32)ccc1CNC(=O)N(C)C = inactive
• CN1CCCN(C(=S)[C@@H]2CCCN2C(=O)NCc2ccc(C(=O)N3Cc4cccn4Cc4ccccc43)c(Cl)c2)CC1 = 17%

Now look at this entry.
Q) Entry Cc1cc(C(=O)N2Cc3cccn3Cc3ccccc32)ccc1CNC(=O)N1CCC[C@H]1C(=S)N1CCCN(C)CC1 needs its Activity filled in; supply it.
A) 11%
